- Test system: LOX IMVI melanoma
- assay-info: NCI tumour cell line growth inhibition, 48 h; in the data active means GI50 below about 0.43 µM; inactive means the rest
Classes used: active, inactive

compound	category
COC(=O)[C@@H](C[C@H](Cc1ccccc1)NC(=O)c1csc([C@@H](C[C@H](C(C)C)N(C)C(=O)[C@@H](NC(=O)[C@H]2CCCCN2C)C(C)C)OC(C)=O)n1)NC(=O)OCc1ccccc1	active
COc1cc(O)c2c(=O)c(OC)c(-c3ccc(OC)c(OC)c3)oc2c1.[Co]	inactive
CN([O-])c1nc(N(C)[O-])nc(N2CCOCC2)n1.CN([O-])c1nc(N(C)[OH2+])nc(N2CCOCC2)n1.[Fe+3]	inactive
Cc1c(C(N)=O)sc2c1c(=O)n(Cc1ccccc1)c1nnc(SCC(=O)Nc3ccc(Cl)cc3)n21	inactive
C[C@]12CCC3c4ccc(O)cc4CCC3C1CC[C@@]2(O)C#Cc1ccc(C#C/C=C\C#Cc2ccccc2N)cc1 (stereo partly drawn)	inactive
CC1CN1C1=CC(=O)c2c(c(CO)cn2C)C1=O (stereo not drawn)	active
CC(C)[C@]12O[C@H]1[C@@H]1O[C@]13[C@]1(O[C@H]1C[C@H]1C4=C(CC[C@@]13C)C(=O)OC4)[C@@H]2OC(=O)CN(C)C	active
COc1ccc2c(c1)C(=O)c1c-2n(CCCNCCO)c(=O)c2ccccc12	active
